Literature-derived Ki for Amine oxidase [flavin-containing] B (Rattus norvegicus) follows.
Endpoint Label: Ki (µM)

{"Molecule": "COc1ccc(C2=NN(c3nc4ccccc4c(=O)n3C)C(c3cccs3)C2)cc1 (stereo not given)", "Test Target": "Amine oxidase [flavin-containing] B (Rattus norvegicus)", "Observed Value": 16.3}
{"Molecule": "COc1ccc(C2CC(c3ccccc3)=NN2c2nc3ccccc3c(=O)n2C)cc1 (stereo not given)", "Test Target": "Amine oxidase [flavin-containing] B (Rattus norvegicus)", "Observed Value": 9.9}
{"Molecule": "COc1ccc(NC(=S)N2N=C(c3ccc(O)cc3)CC2c2ccco2)cc1 (stereo not given)", "Test Target": "Amine oxidase [flavin-containing] B (Rattus norvegicus)", "Observed Value": 1060}
{"Molecule": "S=C(Nc1ccccc1)N1NC2=C(CCCC2)C1c1cccs1 (stereo not given)", "Test Target": "Amine oxidase [flavin-containing] B (Rattus norvegicus)", "Observed Value": 92.3}
{"Molecule": "Cn1c(N2N=C(c3ccccc3)CC2c2ccc(Br)cc2)nc2ccccc2c1=O (stereo not given)", "Test Target": "Amine oxidase [flavin-containing] B (Rattus norvegicus)", "Observed Value": 10.6}
{"Molecule": "CCOc1ccc(C2CNC(=O)CS2)cc1 (racemic)", "Test Target": "Amine oxidase [flavin-containing] B (Rattus norvegicus)", "Observed Value": 3.4}
{"Molecule": "Cc1cccc(NC(=S)N2N=C(c3ccc(O)cc3)CC2c2ccco2)c1 (stereo not given)", "Test Target": "Amine oxidase [flavin-containing] B (Rattus norvegicus)", "Observed Value": 580}
{"Molecule": "O=S(=O)(c1ccccc1)N1N=C(c2ccccc2O)CC1c1ccc(O)cc1 (stereo not given)", "Test Target": "Amine oxidase [flavin-containing] B (Rattus norvegicus)", "Observed Value": 700}
{"Molecule": "Cc1ccc(/C=C/C(=N/Nc2nc3ccccc3c(=O)n2C)c2ccccc2)cc1", "Test Target": "Amine oxidase [flavin-containing] B (Rattus norvegicus)", "Observed Value": 64.6}
{"Molecule": "Cc1ccccc1NC(=S)N1N=C(c2ccc(O)cc2)CC1c1ccco1 (stereo not given)", "Test Target": "Amine oxidase [flavin-containing] B (Rattus norvegicus)", "Observed Value": 28.8}

====

Target or system UniProt P19643; metric Ki; compiled from varied reports.
Biological target: UniProt P19643
Sequence (P19643 whole entry): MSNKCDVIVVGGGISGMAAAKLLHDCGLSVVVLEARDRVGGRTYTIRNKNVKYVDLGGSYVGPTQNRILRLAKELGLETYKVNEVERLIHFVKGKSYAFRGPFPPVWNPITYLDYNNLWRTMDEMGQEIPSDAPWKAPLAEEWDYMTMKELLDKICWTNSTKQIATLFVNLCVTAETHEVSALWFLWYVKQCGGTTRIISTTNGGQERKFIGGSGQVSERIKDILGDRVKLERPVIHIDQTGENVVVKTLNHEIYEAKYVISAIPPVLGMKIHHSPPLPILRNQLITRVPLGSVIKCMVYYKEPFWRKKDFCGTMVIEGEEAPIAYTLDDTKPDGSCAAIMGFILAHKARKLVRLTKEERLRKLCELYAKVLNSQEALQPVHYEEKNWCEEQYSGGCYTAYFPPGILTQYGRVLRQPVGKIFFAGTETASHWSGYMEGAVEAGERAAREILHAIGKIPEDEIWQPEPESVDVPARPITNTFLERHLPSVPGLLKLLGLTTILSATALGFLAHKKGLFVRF
Ki strictly under 70 µM means yes; at 70 µM or over means no.

{"Compound": "Cn1c(=S)[nH]c2ccccc2c1=O", "Category": "no"}
{"Compound": "Cc1ccc(C2=NN(c3nc4ccccc4c(=O)n3C)C(c3ccco3)C2)cc1 (stereo not drawn)", "Category": "no"}
{"Compound": "O=[N+]([O-])c1cccc(C2CC(c3c4ccccc4cc4ccccc34)=NN2)c1 (stereo not drawn)", "Category": "yes"}
{"Compound": "CCNC(=S)N1NC2=C(CCCC2)C1c1ccco1 (stereo not drawn)", "Category": "yes"}
{"Compound": "CNC(=S)N1NC2=C(CCCC2)C1c1cccs1 (stereo not drawn)", "Category": "yes"}
{"Compound": "CNC(=S)N1NC2=C(CCCC2)C1c1ccco1 (stereo not drawn)", "Category": "yes"}
{"Compound": "Cn1c(NN)nc2ccccc2c1=O", "Category": "yes"}
{"Compound": "Cc1ccc(C2CC(c3ccccc3)=NN2c2nc3ccccc3c(=O)n2C)cc1 (stereo not drawn)", "Category": "yes"}
{"Compound": "Clc1ccc(C2CC(c3c4ccccc4cc4ccccc34)=NN2)cc1 (stereo not drawn)", "Category": "yes"}
{"Compound": "Oc1ccc(C2=NN(C(=S)Nc3ccccc3)C(c3cccs3)C2)cc1 (stereo not drawn)", "Category": "yes"}
{"Compound": "S=C(Nc1ccccc1)N1NC2=C(CCCC2)C1c1ccco1 (stereo not drawn)", "Category": "yes"}
{"Compound": "COc1ccc(C2CNC(=O)CS2)cc1 (racemic)", "Category": "yes"}
{"Compound": "Cc1ccc(S(=O)(=O)N2N=C(c3ccccc3O)CC2c2ccccc2O)cc1 (stereo not drawn)", "Category": "no"}
{"Compound": "COc1ccccc1NC(=S)N1N=C(c2ccc(O)cc2)CC1c1ccco1 (stereo not drawn)", "Category": "no"}
{"Compound": "O=S(=O)(c1ccccc1)N1N=C(c2ccccc2O)CC1c1ccccc1O (stereo not drawn)", "Category": "no"}
{"Compound": "CCCN1CCC(c2ccc(N3CCOCC3)cc2)CC1", "Category": "yes"}
{"Compound": "COc1ccc(C2=NN(c3nc4ccccc4c(=O)n3C)C(c3ccco3)C2)cc1 (stereo not drawn)", "Category": "yes"}
{"Compound": "COc1ccc(C(/C=C/c2cccs2)=N\\Nc2nc3ccccc3c(=O)n2C)cc1", "Category": "no"}
{"Compound": "Oc1ccc(C2CC(c3c4ccccc4cc4ccccc34)=NN2)cc1 (stereo not drawn)", "Category": "yes"}
{"Compound": "CCCCOc1ccc(C2CNC(=O)CS2)cc1 (racemic)", "Category": "yes"}
{"Compound": "O=[N+]([O-])c1ccc(C2CC(c3c4ccccc4cc4ccccc34)=NN2)cc1 (stereo not drawn)", "Category": "yes"}

====

pKi: −log10 of the molar value.
Field: pKi. System: Amine oxidase [flavin-containing] B (Rattus norvegicus). Provenance: assorted publications.

{"Compound": "CCCOc1ccc(C2CNC(=O)CS2)cc1 (racemic)", "pKi": 5.83}
{"Compound": "Cn1c(N/N=C(/C=C/c2ccc(Cl)cc2)c2ccccc2)nc2ccccc2c1=O", "pKi": 5.11}
{"Compound": "CCCN1CCC(c2ccc(S(C)(=O)=O)cc2)CC1", "pKi": 3.23}
{"Compound": "C#CCN(C)Cc1ccccc1", "pKi": 5.47}
{"Compound": "Cn1c(N/N=C(/C=C/c2ccccc2)c2ccccc2)nc2ccccc2c1=O", "pKi": 4.15}
{"Compound": "N=C(NO)N1N=C(c2ccccc2O)CC1c1ccccc1O (stereo not drawn)", "pKi": 4.01}
{"Compound": "Oc1ccc(C2=NN(C(=S)Nc3ccccc3)C(c3ccco3)C2)cc1 (stereo not drawn)", "pKi": 3.11}
{"Compound": "Cc1ccc(C(/C=C/c2ccco2)=N\\Nc2nc3ccccc3c(=O)n2C)cc1", "pKi": 3.75}
